Target: UniProt:Q9Y6L6
Sequence (Q9Y6L6 whole entry): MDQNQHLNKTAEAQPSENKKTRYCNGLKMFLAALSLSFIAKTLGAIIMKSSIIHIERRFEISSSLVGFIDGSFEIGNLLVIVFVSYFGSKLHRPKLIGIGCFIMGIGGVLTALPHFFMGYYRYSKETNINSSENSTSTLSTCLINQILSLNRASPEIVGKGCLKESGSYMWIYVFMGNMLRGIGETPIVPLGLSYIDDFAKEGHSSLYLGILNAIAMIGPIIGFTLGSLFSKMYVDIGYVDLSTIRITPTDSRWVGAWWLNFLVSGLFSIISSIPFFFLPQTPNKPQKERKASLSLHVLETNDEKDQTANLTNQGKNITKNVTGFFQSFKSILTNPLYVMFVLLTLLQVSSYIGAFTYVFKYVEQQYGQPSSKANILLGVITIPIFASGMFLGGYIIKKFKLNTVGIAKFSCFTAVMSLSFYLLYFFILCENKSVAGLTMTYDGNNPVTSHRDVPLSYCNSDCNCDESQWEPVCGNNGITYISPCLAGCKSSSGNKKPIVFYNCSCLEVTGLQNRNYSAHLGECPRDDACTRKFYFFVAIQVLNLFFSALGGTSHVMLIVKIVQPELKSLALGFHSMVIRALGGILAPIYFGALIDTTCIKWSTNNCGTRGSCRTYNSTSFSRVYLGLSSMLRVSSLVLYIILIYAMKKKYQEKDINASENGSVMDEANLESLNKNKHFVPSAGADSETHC
Conditions: chinese hamster, cho, 10 µM
ASSAY_METRIC: residual activity (%)
Reply numerically in %, unit not repeated.

Observe how each entry below is paired with its result.
| MOLECULE | UNITS_SYMBOL | residual activity |
| --- | --- | --- |
| O=c1oc2ccccc2c(O)c1Cc1c(O)c2ccccc2oc1=O | % | 33.08 |
| COS(C)(=O)=O | % | 57.02 |
| Oc1ccc2c(c1)OC[C@]1(O)Cc3cc(O)c(O)cc3[C@H]21 | % | 117.2 |
| NC(CO)(CO)CO.O=C(c1ccccc1)c1ccc2n1CCC2C(=O)O (stereo unspecified) | % | 196.1 |
| C1CNCCN1 | % | 77.78 |
| c1cc2c(cc1[C@H]1OC[C@H]3[C@@H]1CO[C@H]3c1ccc3c(c1)OCO3)OCO2 | % | 107.7 |

Please supply the value of reported residual activity for the item CN(C)CCOC(=O)COc1ccc(Cl)cc1.Cl [CENTROPHENOXINE HYDROCHLORIDE]
70.12

Supply residual activity value. Item: "O=C(CCc1ccc(O)cc1)c1c(O)cc(O)cc1O"
83.5

Read the entry "O=C(O)c1cn(C2CC2)c2cc(N3CCNCC3)c(F)cc2c1=O" and write its reported residual activity.
105.3

Provide one value: measured residual activity of "C[C@H]1O[C@@H](O[C@H]2[C@@H](O)C[C@H](O[C@H]3[C@@H](O)C[C@H](O[C@H]4CC[C@@]5(C)[C@H](CC[C@@H]6[C@@H]5CC[C@]5(C)[C@@H](C7=CC(=O)OC7)CC[C@]65O)C4)O[C@@H]3C)O[C@@H]2C)C[C@H](O)[C@@H]1O"
56.48

Return value of residual activity for input "COc1ccc(C(=O)O)cc1OC" , no commentary.
111.3

Quickly give me recorded residual activity for O=C1c2c(O)cccc2C([C@@H]2O[C@H](CO)[C@@H](O)[C@H](O)[C@H]2O)c2cc(CO)cc(O)c21 (stereo partly specified)
48.46

// fetch residual activity given entry "CC[C@@]1(O)C[C@H](O[C@H]2C[C@H](N(C)C)[C@H](O)[C@H](C)O2)c2c(cc3c(c2O)C(=O)c2c(O)ccc(O)c2C3=O)[C@H]1C(=O)OC"
90.45

Please report the measured residual activity for CC(C)c1ccc2c(c1)CCC1[C@](C)(CN)CCC[C@]21C.O=S(=O)(O)O (stereo partly specified) [18-AMINOABIETA-8,11,13-TRIENE SULFATE]
102.4

Identify residual activity associated with the molecule CN1CCCN=C1/C=C/c1cccs1.O=C(O)c1cc2ccccc2c(Cc2c(O)c(C(=O)O)cc3ccccc23)c1O [PYRANTEL PAMOATE]
31.41

Quote residual activity reported for "COc1ccc2c(=O)c(OC)c(-c3ccccc3)oc2c1" please.
59.28
